# Procedure details: LAMP-1 surface exposure blockers, TALL-104 cells – cell-based, flow cytometry, MLPCN library, primary screen (AID 651702)
# Condition description: TALL-104 LAMP-1 surface exposure, at 10 µM, stronger effect = higher value
The whole screen tested about 360,000 compounds, of which about 2,400 (0.67%) were called active. The list comes from a sample in which actives are over-represented; it also holds close analogues and randomly drawn compounds.
Measured quantity: inhibition (%)

In [3]: df
Out[3]:
                                    molecule  measured_quantity  units  recorded_measurement
 0  COc1ccc(-n2c(O)c(C(C)=Nc3ccc4c(c3)CCC4)c(=O)[nH]c2=O)cc1         inhibition      %                  -0.2
 1  O=C1NC(=O)N(CCc2ccc(F)cc2)C(=O)/C1=C/C=C/c1ccccc1         inhibition      %                  57.4
 2  COCc1cc(OC(=O)N(C)C)nc(-c2ccc(C)c(Cl)c2)n1         inhibition      %                  -8.4
 3  COC(=O)C1=C(c2ccc(Cl)c(C(F)(F)F)c2)C[C@@H]2CC[C@H]1N2C(=O)NC(C)C         inhibition      %                 -10.7
 4  CCOP(=S)(OCC)C(O)CCCCCn1c(=O)c(F)cn(C2CCCO2)c1=O (stereo unspecified)         inhibition      %                   1.5
 5  OC1/C(=C/c2ccc(C(F)(F)F)cc2)N2CCC1CC2 (stereo unspecified)         inhibition      %                  -6.5
 6  Cc1cccc(NC(=O)N2CC3CC(C2)c2cccc(=O)n2C3)c1 (stereo unspecified)         inhibition      %                  -2.7
 7        COc1ccc(CNCCc2c[nH]c3ccccc23)cc1OC         inhibition      %                  21.9
 8  Cc1cc(N2C(=O)C3CCCN3C2c2ccc(Cl)c(Cl)c2)no1 (stereo unspecified)         inhibition      %                   1.1
 9  O=C(CCCn1c(=O)[nH]c2cc(Cl)ccc2c1=O)N1CCC2(CC1)OCCO2         inhibition      %                     2
10  O=C(CCNS(=O)(=O)c1ccccc1)Nc1ccc(Cl)cc1C(=O)c1ccccc1         inhibition      %                  -5.4
11  Cc1ccc(CN2CCCC(C(=O)c3ccc4c(c3)OCO4)C2)cc1C (stereo unspecified)         inhibition      %                  -2.3
12  O=c1[nH]c(CN2CC=C(c3ccccc3)CC2)nc2scc(-c3cccs3)c12         inhibition      %                  -1.3
13       COc1ccccc1CN1CCN(C(=O)Cc2ccccc2)CC1         inhibition      %                  24.2
14                  CCCCCCCCCCCCn1ccc(=N)cc1         inhibition      %                  27.1
15  CCOc1ccc(-c2cc(C)[n+](CCN(CC)CC)c(-c3ccc(OCC)cc3)c2)cc1         inhibition      %                  77.5
16  CC(=O)OC1C2(CC3N4C(=O)C5(CO)SSC4(CC31O)C(=O)N5C)OC(C)C(C)(C)C2=O (stereo unspecified)         inhibition      %                  74.7
17     COc1ccc(CNCCc2ccc3c(c2)OCO3)c(OC)c1OC         inhibition      %                   5.7
18  O=C1NC(=O)N(Cc2ccco2)C(=O)/C1=C\c1ccc(-c2ccc(F)cc2)o1         inhibition      %                  76.4
19  CN1CCC[C@@H]1CCO[C@](C)(c1ccccc1)c1ccc(Cl)cc1         inhibition      %                   3.8
20  CCOC(=O)[C@]12Cc3ccccc3[C@H]1N(C1CCCCC1)C(=O)c1cc(OC)ccc12         inhibition      %                  57.3
